Recorded values, source the Kinase Knowledgebase extract (Sharma et al. 2016).

Parameter: pIC50. Scope: all listed entries.
- target_system: EGFR (UniProt P00533)
- Sequence (P00533 whole entry, looked up): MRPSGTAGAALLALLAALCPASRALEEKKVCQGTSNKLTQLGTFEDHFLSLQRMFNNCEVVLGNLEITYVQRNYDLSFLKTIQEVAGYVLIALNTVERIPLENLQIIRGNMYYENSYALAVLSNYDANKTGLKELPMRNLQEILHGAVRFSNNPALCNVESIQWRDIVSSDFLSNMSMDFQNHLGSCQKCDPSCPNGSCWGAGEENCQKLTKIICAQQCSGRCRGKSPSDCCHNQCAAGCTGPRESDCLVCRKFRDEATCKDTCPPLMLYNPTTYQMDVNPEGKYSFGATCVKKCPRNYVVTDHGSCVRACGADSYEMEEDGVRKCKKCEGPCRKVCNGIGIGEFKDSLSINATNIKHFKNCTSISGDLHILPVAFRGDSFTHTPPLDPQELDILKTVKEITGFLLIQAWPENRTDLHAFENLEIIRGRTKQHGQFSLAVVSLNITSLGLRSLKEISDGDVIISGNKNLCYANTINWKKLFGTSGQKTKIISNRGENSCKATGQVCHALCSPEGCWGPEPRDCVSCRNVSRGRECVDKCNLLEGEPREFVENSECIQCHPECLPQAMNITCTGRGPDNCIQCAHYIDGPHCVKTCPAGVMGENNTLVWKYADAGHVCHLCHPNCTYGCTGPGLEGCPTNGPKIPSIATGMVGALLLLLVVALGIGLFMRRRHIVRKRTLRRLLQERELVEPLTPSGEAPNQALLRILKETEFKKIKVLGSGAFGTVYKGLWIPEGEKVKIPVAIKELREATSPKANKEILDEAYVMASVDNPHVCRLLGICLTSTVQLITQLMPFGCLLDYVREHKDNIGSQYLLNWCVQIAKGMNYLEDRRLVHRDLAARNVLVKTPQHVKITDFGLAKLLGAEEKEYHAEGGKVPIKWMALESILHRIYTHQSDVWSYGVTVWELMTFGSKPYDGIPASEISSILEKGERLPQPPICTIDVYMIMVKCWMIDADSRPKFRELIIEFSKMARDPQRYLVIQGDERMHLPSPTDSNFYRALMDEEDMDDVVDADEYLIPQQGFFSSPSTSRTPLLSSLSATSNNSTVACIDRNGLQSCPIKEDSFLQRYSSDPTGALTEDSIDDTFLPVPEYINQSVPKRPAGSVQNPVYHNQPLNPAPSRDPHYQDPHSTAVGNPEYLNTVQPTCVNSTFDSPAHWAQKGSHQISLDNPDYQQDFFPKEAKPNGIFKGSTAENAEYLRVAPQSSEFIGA
pIC50: −log10 of the molar value.

Look over these answered cases.
>>> reading("COc1cc2c(Nc3cccc(Br)c3Cl)ncnc2cc1OCC1CN(C)CCO1 (configuration not stated)")
"> 7.30"
>>> reading("COc1cc2c(Nc3ccc(Cl)c(Cl)c3)ncnc2cc1OCC1CN(C2CCC2)CCO1 (configuration not stated)")
"> 7.30"
>>> reading("COc1cc2c(Nc3ccc(Cl)c(Cl)c3)ncnc2cc1OCC1CN(S(C)(=O)=O)CCO1 (configuration not stated)")
"> 7.30"
>>> reading("COc1cc2c(Nc3ccc(C)c(Br)c3)ncnc2cc1O[C@@H]1CO[C@@H]2[C@H]1OC[C@H]2F")
"> 7.30"

# value lookup — system EGFR (UniProt P00533), readout pIC50, item CCCCCN1CCOC(COc2cc3ncnc(Nc4ccc(Cl)c(Cl)c4)c3cc2OC)C1 (configuration not stated)
> 7.30

# value lookup — system EGFR (UniProt P00533), readout pIC50, item COc1cc2c(Nc3ccc(Cl)c(Cl)c3)ncnc2cc1O[C@@H]1CO[C@@H]2[C@H]1OC[C@H]2F
> 7.30

# value lookup — system EGFR (UniProt P00533), readout pIC50, item COc1cc2c(Nc3ccc(Cl)c(Cl)c3)ncnc2cc1OCc1c(F)cccc1F
> 7.30

###

- target_system: EGFR (UniProt P00533)
pIC50: −log10 of the molar value.
Parameter: pIC50. Scope: all listed entries.

>>> reading("CCC#CCN1CCOC(COc2cc3ncnc(Nc4ccc(Cl)c(Cl)c4)c3cc2OC)C1 (stereo not given)")
"> 7.30"
>>> reading("COc1cc2c(Nc3ccc(Br)c(Cl)c3)ncnc2cc1O[C@H]1CO[C@@H]2[C@H]1OC[C@@H]2NS(C)(=O)=O")
"> 7.30"
>>> reading("COc1cc2c(Nc3ccc(Cl)c(Cl)c3)ncnc2cc1OCC1CN(CCC2OCCCO2)CCO1 (stereo not given)")
"> 7.30"

# value lookup — system EGFR (UniProt P00533), readout pIC50, item COc1cc2c(Nc3ccc(Br)c(Cl)c3Cl)ncnc2cc1OC[C@@H]1CO[C@H]2[C@@H]1OC[C@@H]2O
> 7.30

###

These compounds were tested on UniProt P00533; IC50 is the recorded read-out.

Look over these answered cases.
>>> reading("CCCN1CCOC(COc2cc3ncnc(Nc4ccc(Cl)c(Cl)c4)c3cc2OC)C1 (stereo not given)")
"< 0.05 µM"
>>> reading("CCNC(=NC#N)N1CCOC(COc2cc3ncnc(Nc4ccc(Cl)c(Cl)c4)c3cc2OC)C1 (stereo not given)")
"< 0.05 µM"
>>> reading("COc1cc2c(Nc3ccc(Cl)c(Cl)c3)ncnc2cc1OCC1CN(S(C)(=O)=O)CCCO1 (stereo not given)")
"< 0.05 µM"

# value lookup — system UniProt P00533, readout IC50, item CCOC(=O)C(C)N1CCOC(COc2cc3ncnc(Nc4ccc(Cl)c(Cl)c4)c3cc2OC)C1 (stereo not given)
< 0.05 µM

# value lookup — system UniProt P00533, readout IC50, item COc1ccc(-c2nc(COc3cc4ncnc(Nc5ccc(Cl)c(Cl)c5)c4cc3OC)no2)cc1
< 0.05 µM
